apparent Kd (screen) for assorted binders
Target: T1, TNFR1 (Homo sapiens, UniProt P19438)
T1 chain: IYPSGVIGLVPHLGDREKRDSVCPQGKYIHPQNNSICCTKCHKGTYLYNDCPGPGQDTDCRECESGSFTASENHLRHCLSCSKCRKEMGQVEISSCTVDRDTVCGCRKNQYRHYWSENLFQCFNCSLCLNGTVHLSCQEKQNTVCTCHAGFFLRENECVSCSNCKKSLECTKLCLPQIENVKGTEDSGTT
Assay: yeast display SC50
experimental_readout: apparent Kd (screen) (nM)

binder="L74G (designed binder) MTLQELLREEALRRAEAEAFRYALELLAEKFPEQKEYLLDLAEEIESQIRSLSGVDVEDVRKFLDKEWAWVKEGLAEHPAELAEVEAARAARLAELRAEVEAKVAA" experimental_value=6.43
binder="L27R (designed binder) MTLQELLREEALRRAEAEAFRYALELRAEKFPEQKEYLLDLAEEIESQIRSLSGVDVEDVRKFLDKEWAWVKELLAEHPAELAEVEAARAARLAELRAEVEAKVAA" experimental_value=0.49
